B1: Pistol ribozyme (parent)
chain: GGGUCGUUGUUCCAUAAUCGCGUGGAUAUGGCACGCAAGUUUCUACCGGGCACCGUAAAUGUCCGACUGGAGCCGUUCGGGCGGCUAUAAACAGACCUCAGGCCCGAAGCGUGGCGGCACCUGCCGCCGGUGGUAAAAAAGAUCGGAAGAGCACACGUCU

- Variants of: B1
- assay_method_text: aptazyme ON/OFF ratio, guanine; higher = stronger switching; co-transcriptional cleavage with and without guanine
Measured aptazyme ON/OFF ratio accompanies every entry in the list below.
Respond numerically, and do not add a unit to the figure.

Completed entries (count: 10):
IN: Write down aptazyme ON/OFF ratio measured for item U7G U10G U11C C12A C13A
OUT: 1.11

IN: Write down aptazyme ON/OFF ratio measured for item U7A U8G G9C U10G U11A C12U
OUT: 1.2

IN: Write down aptazyme ON/OFF ratio measured for item U7C U8C C13U
OUT: 1.56

IN: Write down aptazyme ON/OFF ratio measured for item U8G U10C U11C C12A C13A
OUT: 1.1

IN: Write down aptazyme ON/OFF ratio measured for item U7A U8C G9U U11A C13U
OUT: 1.28

IN: Write down aptazyme ON/OFF ratio measured for item U7G U8A U10C U11G C12A C13G
OUT: 1.19

IN: Write down aptazyme ON/OFF ratio measured for item U7A U8C G9A U11A C13G
OUT: 1.09

IN: Write down aptazyme ON/OFF ratio measured for item U7A U8C G9U U11G C12A C13A
OUT: 1.22

IN: Write down aptazyme ON/OFF ratio measured for item U8C U10A U11G C13A
OUT: 1.3

IN: Write down aptazyme ON/OFF ratio measured for item U7A U8A U10C C12U C13G
OUT: 1.07

New cases:
IN: Write down aptazyme ON/OFF ratio measured for item U7A U8G G9U U10A U11G C13A
OUT: 1.14

IN: Write down aptazyme ON/OFF ratio measured for item U7G U8C G9U U10A C12A C13G
OUT: 1.17

IN: Write down aptazyme ON/OFF ratio measured for item U7C U8C U10A C13U
OUT: 1.04

IN: Write down aptazyme ON/OFF ratio measured for item U7C G9A U10C U11A C12G C13U
OUT: 1.18

IN: Write down aptazyme ON/OFF ratio measured for item G9C C12G C13U
OUT: 1.26

IN: Write down aptazyme ON/OFF ratio measured for item U8G U10G U11C C12A C13G
OUT: 1.08
